Test system: ATP;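 also: ATP exposure 15 min at 22 °C before imaging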
Test name: switch fluorescence ratio, 500 uM ATP over buffer (Cy3 cluster intensity, sum of 5 cycles each) (fold (ratio)); higher = stronger signal-on switching upon ATP binding; sequences stand for … in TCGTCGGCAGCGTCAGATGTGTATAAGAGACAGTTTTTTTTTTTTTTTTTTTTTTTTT…TC
Conditions: aptamer strand: ATP DNA aptamer (quencher-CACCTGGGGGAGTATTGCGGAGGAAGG + anchor), 100 nM annealed; ATP concentration: 500 uM
What switch fluorescence ratio was measured for each of the following?
One number for each entry.

Past entries and their recorded results:
{"columns": ["Polymer sequence", "Test value"],
 "data": [
  ["CGGGTAGTGG", 0.995],
  ["ATCTTAGTTT", 1]
]}

For each listed entry, give its switch fluorescence ratio.
1. TTTGAAATAC
2. CGGGGTACGC
3. GTTCTTGGG
4. AAAAGGGGG

Solution:
1: 2.2; 2: 1; 3: 0.983; 4: 0.976

====

What switch fluorescence ratio was measured for each of the following?
Test system: ATP;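 also: ATP exposure 15 min at 22 °C before imaging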
Test name: switch fluorescence ratio, 500 uM ATP over buffer (Cy3 cluster intensity, sum of 5 cycles each) (fold (ratio)); higher = stronger signal-on switching upon ATP binding; sequences stand for … in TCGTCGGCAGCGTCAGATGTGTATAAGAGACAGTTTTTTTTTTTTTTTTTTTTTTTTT…TC
Conditions: aptamer strand: ATP DNA aptamer (quencher-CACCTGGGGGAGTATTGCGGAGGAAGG + anchor), 100 nM annealed; ATP concentration: 500 uM
Give bare numbers.

Past entries and their recorded results:
{"columns": ["Polymer sequence", "switch fluorescence ratio"],
 "data": [
  ["GGTGGTGTTT", 1],
  ["GGTGAAGGCA", 1],
  ["ACTTGTGTAA", 1.02],
  ["ATGTCCTGTG", 1.01],
  ["GACGGGATCT", 1.04],
  ["AGGGTTTTTT", 1.02],
  ["AATGGTATTC", 0.998],
  ["TGGGGAGGGG", 0.991]
]}

For each listed entry, give its switch fluorescence ratio.
1. AGGAAGCTCT
2. GATAGTGC
3. CTTGACAATT
4. AGGCGAGGAT
5. TGCTTGGGGC
6. CTCCCTTCGA
7. TCGGGGAATA

Solution:
[1.03, 1.06, 1, 1.01, 0.99, 1.17, 1.02]

For each listed entry, give its switch fluorescence ratio.
1. GATGCCGTAG
2. TCAGATCTGT
3. TTTATTGGCT
4. AAATCGTTTT
5. AGGGGAGGCT

Solution:
1: 1; 2: 1; 3: 1; 4: 0.972; 5: 0.997

Problem: Provide ATP switch fluorescence ratio reading for TTGGAGATTT .
Solution: 1.02

====

System: ATP;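 also: ATP exposure 15 min at 22 °C before imaging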
Test name: switch fluorescence ratio, 500 uM ATP over buffer (Cy3 cluster intensity, sum of 5 cycles each) (fold (ratio)); higher = stronger signal-on switching upon ATP binding; sequences stand for … in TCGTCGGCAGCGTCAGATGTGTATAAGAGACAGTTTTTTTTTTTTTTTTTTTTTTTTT…TC
Conditions: aptamer strand: ATP DNA aptamer (quencher-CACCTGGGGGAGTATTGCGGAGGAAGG + anchor), 100 nM annealed; ATP concentration: 500 uM
Quantity: switch fluorescence ratio

{"columns": ["Polymer sequence", "switch fluorescence ratio"],
 "data": [
  ["TACGTATTCC", 1.17]
]}

For each listed entry, give its switch fluorescence ratio.
1. TGCAAGTTTG
2. TTAGGTTACT
3. TAATTGTTGC
4. AAATAAAAAG
5. GGGCCGTTGC
6. TTGTAGAGCT
7. GGGTCTTATG

Solution:
1. 1
2. 1.03
3. 0.969
4. 1.01
5. 0.948
6. 0.949
7. 1.03

For each listed entry, give its switch fluorescence ratio.
1. TGGGGGTCCT
2. AAGAGCACT
3. GGCGTCAGGA

Solution:
1: 1.01; 2: 1.05; 3: 1.01
